System: grafted B16 F0 murine melanoma tumour
Assay: Biodistribution of the ^125I-labelled molecules in the melanoma-bearing mouse (autoradiography of whole-body sections)
Conditions: 3 H after i.v. administration, ^125I-labelled compound
Counter-ions that a name gives are not always drawn.
# Concentration of radioactivity, uvea (pigmented tissues of the eye), Mean per record follows
Report the figure in % ID/g without appending any unit label.

For reference, reported Concentration of radioactivity, uvea (pigmented tissues of the eye), Mean for CCN(CC)CCNC(=O)c1ccc(I)nc1 [compound 7, dihydrochloride] stands at 12.69

For reference, reported Concentration of radioactivity, uvea (pigmented tissues of the eye), Mean for CCN(CC)CCNC(=O)c1cc2cc(I)ccc2[nH]1 [compound 10, hydrochloride] stands at 12.78

For reference, reported Concentration of radioactivity, uvea (pigmented tissues of the eye), Mean for CCN(CC)CCNC(=O)c1ccc2cc(I)ccc2c1 [compound 3, hydrochloride] stands at 13.90

For reference, reported Concentration of radioactivity, uvea (pigmented tissues of the eye), Mean for CCN(CC)CCNC(=O)c1ccc2cc(I)ccc2n1.Cl.Cl [compound 31] stands at 33.10

For reference, reported Concentration of radioactivity, uvea (pigmented tissues of the eye), Mean for CCN(CC)CCNC(=O)c1nc2ccc(I)cc2[nH]1.Cl.Cl [compound 26] stands at 24.40

For reference, reported Concentration of radioactivity, uvea (pigmented tissues of the eye), Mean for CCN(CC)CCNC(=O)c1cc2c(I)cccc2s1.Cl [compound 13] stands at 19.51

For reference, reported Concentration of radioactivity, uvea (pigmented tissues of the eye), Mean for CCN(CC)CCNC(=O)c1nc2ccccn2c1I [compound 16, dihydrochloride] stands at 16.60

---

Tested on: grafted B16 F0 murine melanoma tumour
Experiment: Biodistribution of the ^125I-labelled molecules in the melanoma-bearing mouse (autoradiography of whole-body sections)
Conditions: 3 H after i.v. administration, ^125I-labelled compound
Structures can show the parent of a compound that is named as a salt.
metric_name: Concentration of radioactivity, kidney, Mean (% ID/g)
Report the figure in % ID/g without appending any unit label.

Look over these answered cases.
>  <compound>
CCN(CC)CCNC(=O)c1ccc(I)nc1 [compound 7, dihydrochloride]

>  <assay_target>
grafted B16 F0 murine melanoma tumour

>  <measure_unit>
% ID/g

>  <readout_value>
3.26

$$$$
>  <compound>
CCN(CC)CCNC(=O)c1nc2ccc(I)cc2[nH]1.Cl.Cl [compound 26]

>  <assay_target>
grafted B16 F0 murine melanoma tumour

>  <measure_unit>
% ID/g

>  <readout_value>
4.57

$$$$
>  <compound>
CCN(CC)CCNC(=O)c1ccc2cc(I)ccc2c1 [compound 3, hydrochloride]

>  <assay_target>
grafted B16 F0 murine melanoma tumour

>  <measure_unit>
% ID/g

>  <readout_value>
5.65

$$$$

For reference, reported Concentration of radioactivity, kidney, Mean for CCN(CC)CCNC(=O)c1cc2cc(I)ccc2[nH]1 [compound 10, hydrochloride] stands at 4.19

For reference, reported Concentration of radioactivity, kidney, Mean for CCN(CC)CCNC(=O)c1ccc2cc(I)ccc2n1.Cl.Cl [compound 31] stands at 12.59

For reference, reported Concentration of radioactivity, kidney, Mean for CCN(CC)CCNC(=O)c1nc2ccccn2c1I [compound 16, dihydrochloride] stands at 5.04

---

Tested on: grafted B16 F0 murine melanoma tumour
Assay: Biodistribution of the ^125I-labelled molecules in the melanoma-bearing mouse (autoradiography of whole-body sections)
Conditions: B 16 tumour; 1 H
Structures can show the parent of a compound that is named as a salt.
Label Y for high-side Biodistribution, Mean, B 16 (at or above 7) and N for low-side Biodistribution, Mean, B 16 (below it).

These solved cases illustrate the format of a correct answer.
>  <molecule>
CCN(CC)CCNC(=O)c1ccc2cncc(I)c2n1.Cl.Cl

>  <assay_target>
grafted B16 F0 murine melanoma tumour

>  <cat>
Y

$$$$
>  <molecule>
CCN(CC)CCNC(=O)c1cnc2cc(I)ccc2n1.Cl.Cl

>  <assay_target>
grafted B16 F0 murine melanoma tumour

>  <cat>
Y

$$$$
>  <molecule>
CCN(CC)CCNC(=O)c1cccc2cc3cc(I)ccc3nc12 [compound 111, dihydrochloride]

>  <assay_target>
grafted B16 F0 murine melanoma tumour

>  <cat>
N

$$$$
>  <molecule>
CCN(CC)CCNC(=O)c1c[nH]c2ccc(I)cc2c1=O [compound 35, dihydrochloride]

>  <assay_target>
grafted B16 F0 murine melanoma tumour

>  <cat>
N

$$$$
>  <molecule>
CCCN(CCC)CCCCNC(=O)c1ccc2cc(I)ccc2n1 [compound 49, dihydrochloride]

>  <assay_target>
grafted B16 F0 murine melanoma tumour

>  <cat>
Y

$$$$

Task item: Quick check, Biodistribution, Mean, B 16 >= 7? CCN(CC)CCNC(=O)c1cc2c(I)cccc2cn1 [compound 39, dihydrochloride]
Reply: Y

---

Test system: grafted B16 F0 murine melanoma tumour
Assay: Biodistribution of the ^125I-labelled molecules in the melanoma-bearing mouse (autoradiography of whole-body sections)
Settings: liver; 1 H
# Biodistribution, Mean, liver per record follows
Provide a numeric answer; units are not to be included.

>  <compound>
CCN(CC)CCNC(=O)c1ccc2cncc(I)c2n1.Cl.Cl

>  <assay_target>
grafted B16 F0 murine melanoma tumour

>  <Biodistribution, Mean, liver>
3.92

$$$$

For reference, reported Biodistribution, Mean, liver for "CCN(CC)CCNC(=O)c1cnc2cc(I)ccc2n1.Cl.Cl" stands at 13.18

---

# Biodistribution, Mean, muscle per record follows
System: grafted B16 F0 murine melanoma tumour
Assay: Biodistribution of the ^125I-labelled molecules in the melanoma-bearing mouse (autoradiography of whole-body sections)
Conditions: muscle; 6 H
Counter-ions that a name gives are not always drawn.
Provide a numeric answer; units are not to be included.

The reported Biodistribution, Mean, muscle value, grafted B16 F0 murine melanoma tumour, for CCN(CC)CCNC(=O)c1cccc2cc3cccc(I)c3nc12 [compound 102, dihydrochloride] reads 1.36

The reported Biodistribution, Mean, muscle value, grafted B16 F0 murine melanoma tumour, for "CCN(CC)CCNC(=O)c1cnc2cc(I)ccc2n1.Cl.Cl" reads 0.87

The reported Biodistribution, Mean, muscle value, grafted B16 F0 murine melanoma tumour, for CCN(CC)CCNC(=O)c1c[nH]c2ccc(I)cc2c1=O [compound 35, dihydrochloride] reads 0.01

The reported Biodistribution, Mean, muscle value, grafted B16 F0 murine melanoma tumour, for CCN(CC)CCNC(=O)c1cccc2c(Nc3ccc(NS(C)(=O)=O)cc3OC)c3cc(I)ccc3nc12 [compound 129, dihydrochloride] reads 0.44

The reported Biodistribution, Mean, muscle value, grafted B16 F0 murine melanoma tumour, for CCCN(CCC)CCCCNC(=O)c1ccc2cc(I)ccc2n1 [compound 49, dihydrochloride] reads 0.45

The reported Biodistribution, Mean, muscle value, grafted B16 F0 murine melanoma tumour, for "CCN(CC)CCNC(=O)c1ccc2cncc(I)c2n1.Cl.Cl" reads 0.24

---

System: grafted B16 F0 murine melanoma tumour
Assay: Biodistribution of the ^125I-labelled molecules in the melanoma-bearing mouse (autoradiography of whole-body sections)
Conditions: 6 H after i.v. administration, ^125I-labelled compound
Counter-ions that a name gives are not always drawn.
Checkbox rule: Concentration of radioactivity, Sc (stomach contents), Mean lower than 20 % ID/g = Yes; Concentration of radioactivity, Sc (stomach contents), Mean not lower than 20 % ID/g = No.

These solved cases illustrate the format of a correct answer.
>  <molecule>
CCN(CC)CCNC(=O)c1cc2cc(I)ccc2[nH]1 [compound 10, hydrochloride]

>  <cat>
No

$$$$
>  <molecule>
CCN(CC)CCNC(=O)c1nc2ccc(I)cc2[nH]1.Cl.Cl

>  <cat>
Yes

$$$$
>  <molecule>
CCN(CC)CCNC(=O)c1ccc2cc(I)ccc2n1.Cl.Cl

>  <cat>
No

$$$$
>  <molecule>
CCN(CC)CCNC(=O)c1nc2ccccn2c1I [compound 16, dihydrochloride]

>  <cat>
No

$$$$

Task item: Strictly below 20 % ID/g in Concentration of radioactivity, Sc (stomach contents), Mean? CCN(CC)CCNC(=O)c1ccc(I)nc1 [compound 7, dihydrochloride]
Reply: No

Task item: Strictly below 20 % ID/g in Concentration of radioactivity, Sc (stomach contents), Mean? CCN(CC)CCNC(=O)c1ccc2cc(I)ccc2c1 [compound 3, hydrochloride]
Reply: Yes

Task item: Strictly below 20 % ID/g in Concentration of radioactivity, Sc (stomach contents), Mean? "CCN(CC)CCNC(=O)c1cc2c(I)cccc2s1.Cl"
Reply: Yes

---

System: grafted B16 F0 murine melanoma tumour
Assay: Biodistribution of the ^125I-labelled molecules in the melanoma-bearing mouse (autoradiography of whole-body sections)
Settings: blood; 3 H
Where a name gives a salt, the structure may show the parent alone.
Label class 1 for high-side Biodistribution, Mean, blood (at or above 3) and class 0 for low-side Biodistribution, Mean, blood (below it).

These solved cases illustrate the format of a correct answer.
>  <molecule>
CCCN(CCC)CCCCNC(=O)c1ccc2cc(I)ccc2n1 [compound 49, dihydrochloride]

>  <cat>
class 1

$$$$
>  <molecule>
CCN(CC)CCNC(=O)c1ccc2cncc(I)c2n1.Cl.Cl [compound 142]

>  <cat>
class 0

$$$$

Task item: Quick check, Biodistribution, Mean, blood >= 3? CCN(CC)CCNC(=O)c1cccc2cc3cc(I)ccc3nc12 [compound 111, dihydrochloride]
Reply: class 0

Task item: Quick check, Biodistribution, Mean, blood >= 3? CCN(CC)CCNC(=O)c1c[nH]c2ccc(I)cc2c1=O [compound 35, dihydrochloride]
Reply: class 0

Task item: Quick check, Biodistribution, Mean, blood >= 3? CCN(CC)CCNC(=O)c1cc2c(I)cccc2cn1 [compound 39, dihydrochloride]
Reply: class 0
